Molecular target: T1, human CD27 (HA-tagged, expressed in HEK293 cells) (human, UniProt P26842 20-260, limits assumed)
T1 construct: Plasmid printed as 'pcDNA3-HA-CD2'; not shown: HA tag
T1 sequence (looked up): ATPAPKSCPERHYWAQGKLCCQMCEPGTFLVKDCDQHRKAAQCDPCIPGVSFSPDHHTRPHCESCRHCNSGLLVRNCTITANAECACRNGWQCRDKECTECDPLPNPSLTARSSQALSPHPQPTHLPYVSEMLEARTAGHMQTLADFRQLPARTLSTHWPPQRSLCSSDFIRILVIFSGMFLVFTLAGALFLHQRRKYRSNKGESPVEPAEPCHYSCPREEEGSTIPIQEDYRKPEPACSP
Experiment: co-immunoprecipitation, HEK293 co-transfection
measurement.name: binding result

| binder | readout.value |
| --- | --- |
| SEMG2-P2 fused with GFP (other, not shown: GFP fusion partner) QNPSQDQGNSPSGKGLSSQCSNTEKRLWVHGLSKEQASASGAQKGRTQGGSQSSYVLQTEELVVNKQQRETKNSHQNKGHYQNVVDVREEHSSKLQTSLHPAHQDRLQHGPKDIFTTQDELLVYNKNQHQTKNLSQDQEHGR | no binding |
| SEMG2-P4 fused with GFP (other, not shown: GFP fusion partner) EYGHKENKISYQSSSTEERRLNSGEKDVQKGVSKGSISIQTEEKIHGKSQNQVTIPSQDQEHGHKENKMSYQSSSTEERRLNYGGKSTQKDVSQSSIS | no binding |
